# system-under-test: NLRP3 inflammasome (Mus musculus, UniProt Q8R4B8)
# Construct: endogenous in cells; host or cells: primary mouse bone marrow-derived dendritic cells (BMDCs), LPS-primed
# Sequence (Q8R4B8 whole entry): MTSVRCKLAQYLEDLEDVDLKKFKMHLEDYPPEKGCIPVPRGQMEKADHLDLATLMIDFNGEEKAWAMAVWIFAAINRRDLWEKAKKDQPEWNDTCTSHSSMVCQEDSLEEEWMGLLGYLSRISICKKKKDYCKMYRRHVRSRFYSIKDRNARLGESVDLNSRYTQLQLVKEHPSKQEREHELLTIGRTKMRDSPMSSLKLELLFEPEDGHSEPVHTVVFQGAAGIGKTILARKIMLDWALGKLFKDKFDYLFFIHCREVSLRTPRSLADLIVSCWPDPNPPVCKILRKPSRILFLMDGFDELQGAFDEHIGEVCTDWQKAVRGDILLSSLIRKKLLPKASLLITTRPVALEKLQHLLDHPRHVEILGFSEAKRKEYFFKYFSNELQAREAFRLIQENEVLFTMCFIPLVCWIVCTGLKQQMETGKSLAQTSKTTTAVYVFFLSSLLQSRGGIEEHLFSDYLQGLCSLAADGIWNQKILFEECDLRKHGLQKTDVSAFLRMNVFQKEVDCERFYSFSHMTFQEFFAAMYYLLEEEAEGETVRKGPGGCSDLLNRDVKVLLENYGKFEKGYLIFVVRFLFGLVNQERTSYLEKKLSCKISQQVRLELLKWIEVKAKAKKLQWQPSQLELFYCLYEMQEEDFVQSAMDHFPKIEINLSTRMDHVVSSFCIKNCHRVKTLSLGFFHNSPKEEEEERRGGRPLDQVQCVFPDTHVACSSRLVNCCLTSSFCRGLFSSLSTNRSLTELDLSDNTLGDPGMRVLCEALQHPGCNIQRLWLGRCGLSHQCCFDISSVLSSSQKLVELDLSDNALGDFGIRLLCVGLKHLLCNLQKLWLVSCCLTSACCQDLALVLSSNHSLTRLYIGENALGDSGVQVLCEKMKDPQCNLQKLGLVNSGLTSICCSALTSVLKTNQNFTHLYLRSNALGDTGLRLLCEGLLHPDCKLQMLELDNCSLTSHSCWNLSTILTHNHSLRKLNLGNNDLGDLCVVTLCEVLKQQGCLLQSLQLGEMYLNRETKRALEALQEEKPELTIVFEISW
# experimental-details: IL-1β release from LPS-primed BMDCs (ELISA) as readout of NLRP3 inflammasome activation
# Type: cell-based
# settings: 40 μM
measured-metric: Average IL-1β (ng/mL)
Report the figure in ng/mL without appending any unit label.

# input-smiles, value-units, Average IL-1β
measured = [
    ("O=C(Nc1ccccc1)Nc1ccc2ncc(Br)cc2c1", "ng/mL", 1.507),
    ("COc1ccc(NC(=O)Nc2ccc3ncccc3c2)cc1", "ng/mL", 2.655),
    ("N#Cc1ccc(NC(=O)Nc2ccc3ncccc3c2)cc1", "ng/mL", 0.604),
]

# ---- query compound ----
-- ask Entry O=C(Nc1ccccc1)Nc1ccc2ncccc2n1 needs its Average IL-1β filled in; supply it.
-- reply 0.192

---

# system-under-test: NLRP3 inflammasome (Mus musculus)
# Construct: endogenous in cells; host or cells: primary mouse bone marrow-derived dendritic cells (BMDCs), LPS-primed
# experimental-details: IL-1β release from LPS-primed BMDCs (ELISA) as readout of NLRP3 inflammasome activation
# Type: cell-based
# settings: IL-1β; 20 μM; positive control EN22
measured-metric: Average (% positive control)
Report the figure in % positive control without appending any unit label.

Some compounds with recorded Average (% positive control):
# input-smiles, measured-metric, recorded-measurement
measured = [
    ("O=C(Nc1ccccc1)Nc1ccc2ncc(Br)cc2c1", "Average (% positive control)", 49.601),
    ("N#Cc1ccc(NC(=O)Nc2ccc3ncccc3c2)cc1", "Average (% positive control)", 29.413),
    ("COc1ccc(NC(=O)Nc2ccc3ncccc3c2)cc1", "Average (% positive control)", 122.814),
]

-- ask Entry O=C(Nc1ccccc1)Nc1ccc2ncccc2n1 needs its Average (% positive control) filled in; supply it.
-- reply 2.292

---

# Average (% positive control) per record follows
# System: BMDCs
# experimental-details: LDH release (lytic cell death, pyroptosis) from LPS-primed BMDCs
# Assay type: cell-based, mouse
# settings: LDH release; compound 50 μM; positive control nigericin 5 μM
Report the figure in % positive control without appending any unit label.

-- ask # return Average (% positive control) for Cc1ccc(NC(=O)NCc2nc(Cc3ccccc3)no2)cc1 , test system: BMDCs
-- reply 7.174

-- ask # return Average (% positive control) for CC(C)Oc1ccccc1NC(=O)NCc1nc(C2CC2)no1 , test system: BMDCs
-- reply 8.649

-- ask # return Average (% positive control) for O=C(Nc1ccccc1)Nc1cccc([N+](=O)[O-])c1 , test system: BMDCs
-- reply 14.362

-- ask # return Average (% positive control) for CC(C)C(=O)Nc1cccc(NC(=O)Nc2ccccc2)c1 , test system: BMDCs
-- reply 7.611

-- ask # return Average (% positive control) for O=C(NCc1nc(-c2ccsc2)no1)Nc1cc(Cl)cc(Cl)c1 , test system: BMDCs
-- reply 30.346

---

# system-under-test: NLRP3 inflammasome (Mus musculus, UniProt Q8R4B8)
# Construct: endogenous in cells; host or cells: primary mouse bone marrow-derived dendritic cells (BMDCs), LPS-primed
# experimental-details: IL-1β release from LPS-primed BMDCs (ELISA) as readout of NLRP3 inflammasome activation
# Format: cell-based
# settings: 80 μM
measured-metric: Average IL-1β (ng/mL)
Report the figure in ng/mL without appending any unit label.

Some molecules with recorded Average IL-1β:
# input-smiles, system-under-test, Average IL-1β, ng/mL
data = [
    ("O=C(Nc1ccccc1)Nc1ccc2ncccc2n1", "NLRP3 inflammasome (Mus musculus, UniProt Q8R4B8)", 0.503),
    ("O=C(Nc1ccccc1)Nc1ccc2ncc(Br)cc2c1", "NLRP3 inflammasome (Mus musculus, UniProt Q8R4B8)", 1.657),
]

-- ask Entry N#Cc1ccc(NC(=O)Nc2ccc3ncccc3c2)cc1 needs its Average IL-1β filled in; supply it.
-- reply 0.752

-- ask Entry COc1ccc(NC(=O)Nc2ccc3ncccc3c2)cc1 needs its Average IL-1β filled in; supply it.
-- reply 3.966

// provenance: patent US20240277658A1
